- Target Of Assay: T1, Full length murine HtrA1 (MuHtrA1) (P24-P480), N-terminal His6 tag (murine, UniProt Q9R118 24-480)
- T1 construct: Expressed in insect cells
- T1 sequence (Q9R118 other isoform, or with tags, fused parts or gaps): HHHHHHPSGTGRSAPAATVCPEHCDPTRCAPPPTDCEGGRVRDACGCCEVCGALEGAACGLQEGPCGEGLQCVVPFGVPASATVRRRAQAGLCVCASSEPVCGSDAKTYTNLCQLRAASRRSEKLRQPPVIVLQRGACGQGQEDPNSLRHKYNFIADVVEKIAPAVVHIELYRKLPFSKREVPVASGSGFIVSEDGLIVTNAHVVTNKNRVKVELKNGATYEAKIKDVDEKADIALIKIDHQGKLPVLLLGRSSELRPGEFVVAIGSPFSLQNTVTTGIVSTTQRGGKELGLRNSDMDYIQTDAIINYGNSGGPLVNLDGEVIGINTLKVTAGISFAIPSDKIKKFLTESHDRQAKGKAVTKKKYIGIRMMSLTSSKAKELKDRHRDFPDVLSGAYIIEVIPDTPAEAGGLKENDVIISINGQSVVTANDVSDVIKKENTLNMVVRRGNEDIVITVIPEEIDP
- Experimental Protocol: SPR (BIAcore T100), single-cycle kinetics, biotinylated murine HtrA1 captured on streptavidin, Fab in solution
Assay Metric: koff (s⁻¹)
Please give a number only; it is taken to be in s⁻¹.

Binder: Fab94 (anti-HtrA1 antibody YW505.94, Fab format) (Fab, V domains shown) VH: EVQLVESGGGLVQPGGSLRLSCAASGFNISGYYIHWVRQAPGKGLEWVGWIDPYGGDTNYADSVKGRFTISADTSKNTAYLQMNSLRAEDTAVYYCARGTFLTSWGHYFDYWGQGT VL: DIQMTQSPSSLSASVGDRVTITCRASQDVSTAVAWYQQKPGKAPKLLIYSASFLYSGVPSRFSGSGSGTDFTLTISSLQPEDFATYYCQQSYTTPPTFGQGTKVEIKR
koff / s⁻¹: 0.0129

Ask | Please report the recorded koff for YW505.94a.28 Fab (Fab, V domains shown) VH: EVQLVESGGGLVQPGGSLRLSCAASGFSISGYYIHWVRQAPGKGLEWVGWIDPYGGDTNYADSVKGRFTISADTSKNTAYLQMNSLRAEDTAVYYCARGTFLTSWGHYFDYWGQGT VL: DIQMTQSPSSLSASVGDRVTITCRASQSINTYLAWYQQKPGKAPKLLIYSASFLYSGVPSRFSGSGSGTDFTLTISSLQPEDFATYYCQQSDDTPPTFGQGTKVEIKR .
Reply | 0.0093

Ask | YW505.94a Fab (Fab, V domains shown, Tested as Fab) VH: EVQLVESGGGLVQPGGSLRLSCAASGFSISGYYIHWVRQAPGKGLEWVGWIDPYGGDTNYADSVKGRFTISADTSKNTAYLQMNSLRAEDTAVYYCARGTFLTSWGHYFDYWGQGT VL: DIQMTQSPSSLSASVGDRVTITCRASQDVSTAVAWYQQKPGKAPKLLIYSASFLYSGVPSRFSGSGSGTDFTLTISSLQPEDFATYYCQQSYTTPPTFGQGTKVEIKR , same question.
Reply | 0.0856

Ask | YW505.94a.54 Fab (Fab, V domains shown) VH: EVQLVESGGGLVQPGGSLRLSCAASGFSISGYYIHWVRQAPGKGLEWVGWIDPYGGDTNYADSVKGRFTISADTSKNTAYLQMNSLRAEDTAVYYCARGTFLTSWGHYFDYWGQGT VL: DIQMTQSPSSLSASVGDRVTITCRASQVVGNYLAWYQQKPGKAPKLLIYSASFLYSGVPSRFSGSGSGTDFTLTISSLQPEDFATYYCQQSDDHPPTFGQGTKVEIKR , same question.
Reply | 0.00455
